Target: tissue factor (TF) on the surface of TF-positive tumor cells (human, UniProt P13726 33-295)
Assay: cell-based or functional assay
property_measured: Maximum inhibition rate (%), FVIIa-induced IL-8 release by MDA-MB-231 cells
Express your answer in %, writing the number without its unit.

# input Need Maximum inhibition rate (%), FVIIa-induced IL-8 release by MDA-MB-231 cells, item 30G11B7-hz1 (antibody, human IgG1, kappa, V domains shown, Humanized IgG1 kappa) VH: EVQLVESGGGLVKPGGSLRLSCAASGFTFSDYGMFWVRQAPGKGLEWVAYISRGSTTIYYADSVKGRFTISRDNAKNSLYLQMNSLRAEDTAVYFCTRRYYGDYFDYWGQGTLVTVSS VL: EIVLTQSPDFQSVTPKEKVTITCRASQSISNYLHWYQQKPDQSPKLLIKYASQSISGVPSRFSGSGSGTDFTLTINSLEAEDAATYFCQQSYNWPLTFGQGTKVEIKR
# output 100

# input // next record 2B12B10-hz1 (antibody, human IgG1, kappa, V domains shown, Humanized IgG1 kappa) VH: EVQLVESGGGLVQPGGSLRLSCAASGFAFSDSGMHWVRQAPGKGLEWVAYISRDSNTIYYADSVKGRFTISRDNAKNSLYLQMNSLRAEDTAVYYCGRRYYGDYFDYWGQGTLVTVSS VL: DIVLTQSPATLSLSPGERATLSCRASQRVTNYLHWYQQKPGQSPRLLIKYASQSISGIPARFSGSGSGTDFTLTISSLEPEDFAVYFCQQSYNWPLTFGQGTKVEIKR
# output 94.1

# input // next record 22F11H5-hz1 (antibody, human IgG1, kappa, V domains shown, Humanized IgG1 kappa) VH: QVQLVQSGAEVKQPGASVKVSCKASGYTFTTYWMHWVRQAPGQGLEWMGMIDPSDSYTTYAQKFQGRVTLTVDTSTSTAYMELSSLRSEDTAVYYCARGSGPGLFAYWGQGTLVTVSS VL: DIQETQSPSSLSASVGDRVTITCRASQDIRNYLNWYQQKPGKAPKLLIYHTSRLQSGVPSRFSGSGSGTDYTLTISSLQPEDFATYYCQQGNMPPYTFGQGTKVEIKR
# output 94.3

# input // next record 27H8H3-hz1 (antibody, human IgG1, kappa, V domains shown, Humanized IgG1 kappa) VH: QVQLVQSGAEVKKPGASVKVSCKASGYTFTTYWMHWVRQAPGQGLEWMGMIDPSDSYTSYAQKFQGRVTLTVDTSTSTAYMELSSLRSEDTAVYYCTRGSGPGLFAYWGQGTLVTVSS VL: DIQETQSPSSLSASVGDRVTITCRASQGISNYLNWYQQKPGKAPKLLIYHTSRLHSGVPSRFSGSVSGTDFTLTISSLQPEDFATYFCQQGNTLPYTFGQGTKVEIKR
# output 100
